biological target: Human immunodeficiency virus type 1 protease (Human immunodeficiency virus 1); assay: Ability to increase whole-cell antiviral efficacy through better translation defined as the ratio between IC90 and Ki; format: functional
Could you please mark TRUE for values of Ratio below 400 and FALSE for values at or above it?

Study these solved cases before continuing.
[
  {
    "line_notation": "O=C1N(Cc2ccccc2)[C@H](Cc2ccccc2)[C@H](O)[C@@H](O)[C@@H](Cc2ccccc2)N1Cc1ccccc1",
    "cat": "TRUE"
  },
  {
    "line_notation": "COc1ccc(C[C@@H]2[C@H](O)[C@@H](O)[C@@H](Cc3ccc(OC)cc3)N(Cc3ccccc3)C(=O)N2Cc2ccccc2)cc1",
    "cat": "TRUE"
  },
  {
    "line_notation": "CSc1ccc(C[C@@H]2[C@H](O)[C@@H](O)[C@@H](Cc3ccc(SC)cc3)N(Cc3ccccc3)C(=O)N2Cc2ccccc2)cc1",
    "cat": "TRUE"
  },
  {
    "line_notation": "O=C1N(Cc2ccc(CO)cc2)[C@H](Cc2ccc(F)c(F)c2)[C@H](O)[C@@H](O)[C@@H](Cc2ccc(F)c(F)c2)N1Cc1ccc(CO)cc1",
    "cat": "TRUE"
  },
  {
    "line_notation": "CS(=O)(=O)c1ccc(C[C@@H]2[C@H](O)[C@@H](O)[C@@H](Cc3ccc(S(C)(=O)=O)cc3)N(Cc3ccccc3)C(=O)N2Cc2ccccc2)cc1",
    "cat": "TRUE"
  },
  {
    "line_notation": "Nc1cccc(C[C@@H]2[C@H](O)[C@@H](O)[C@@H](Cc3cccc(N)c3)N(Cc3ccccc3)C(=O)N2Cc2ccccc2)c1",
    "cat": "FALSE"
  },
  {
    "line_notation": "O=C1N(Cc2ccc(CO)cc2)[C@H](Cc2ccccc2)[C@H](O)[C@@H](O)[C@@H](Cc2ccccc2)N1Cc1ccc(CO)cc1",
    "cat": "FALSE"
  },
  {
    "line_notation": "CSc1cccc(C[C@@H]2[C@H](O)[C@@H](O)[C@@H](Cc3cccc(SC)c3)N(Cc3ccccc3)C(=O)N2Cc2ccccc2)c1",
    "cat": "FALSE"
  },
  {
    "line_notation": "O=C1N(CC2CC2)[C@H](Cc2cccs2)[C@H](O)[C@@H](O)[C@@H](Cc2cccs2)N1CC1CC1",
    "cat": "FALSE"
  },
  {
    "line_notation": "O=C1N(CC2CC2)[C@H](Cc2ccccc2)[C@H](O)[C@@H](O)[C@@H](Cc2ccccc2)N1CC1CC1",
    "cat": "FALSE"
  }
]

Dear reviewer, please state whether O=C1N(CC2CC2)[C@H](Cc2cccc(O)c2)[C@H](O)[C@@H](O)[C@@H](Cc2cccc(O)c2)N1CC1CC1 has Ratio strictly beneath 400.
TRUE

Dear reviewer, please state whether COc1cccc(C[C@@H]2[C@H](O)[C@@H](O)[C@@H](Cc3cccc(OC)c3)N(CC3CC3)C(=O)N2CC2CC2)c1 has Ratio strictly beneath 400.
FALSE

Dear reviewer, please state whether COc1ccc(C[C@@H]2[C@H](O)[C@@H](O)[C@@H](Cc3ccc(OC)cc3)N(Cc3ccc(CO)cc3)C(=O)N2Cc2ccc(CO)cc2)cc1 has Ratio strictly beneath 400.
TRUE

Dear reviewer, please state whether CN(C)c1cccc(C[C@@H]2[C@H](O)[C@@H](O)[C@@H](Cc3cccc(N(C)C)c3)N(Cc3ccccc3)C(=O)N2Cc2ccccc2)c1 has Ratio strictly beneath 400.
TRUE
